- System: HL-60(TB) leukemia
- assayNotes: NCI-60 one-dose screen, 48 h (100 = growth as untreated, 0 = no growth, -100 = all killed)
- experimentalSetup: 10 µM unless noted
This is part of a sample that, as a whole, favours compounds with a hit. Of some 83,000 tested, about 20% had one in any assay.
growth strictly less than 90% = True. Otherwise False.

Solved cases (10 shown):
- molecule: "COc1ccc2c(c1)OC(N)=C(C#N)C2c1ccc(F)c(F)c1 (configuration not stated)"
  classification: "True"
- molecule: "COC(=O)[C@@H]1CCCN1C(=O)[C@@H]1CCCN1C(=O)[C@H](Cc1ccccc1)NC(=S)Nc1cc(C(F)(F)F)cc(C(F)(F)F)c1"
  classification: "True"
- molecule: "CCCCC(O)c1ccccc1 (configuration not stated)"
  classification: "False"
- molecule: "COc1ccc2c(c1)/C(=C/c1sc(=S)n(Cc3ccco3)c1O)C=N2"
  classification: "True"
- molecule: "COc1ccc(CCCc2c3[n+](cc4c(OC)c(OC)ccc24)CCc2cc4c(cc2-3)OCO4)cc1"
  classification: "True"
- molecule: "CNc1ccccc1C(N)=O"
  classification: "False"
- molecule: "CCOc1ccc2c(c1)CN(Cc1ccc(Cl)cc1)CO2"
  classification: "False"
- molecule: "COc1cc2c(cc1OC)C(=O)/C(=C/c1cc(-c3ccc4c(c3)OCO4)n[nH]1)C2"
  classification: "True"
- molecule: "O=[N+]([O-])c1ccc2c(c1)Cc1ccccc1-2"
  classification: "True"
- molecule: "O=C(c1ccccc1)C(Br)C(Br)c1cccc([N+](=O)[O-])c1 (configuration not stated)"
  classification: "True"

Please indicate whether the reported growth of CNC1=C([N+](=O)[O-])C(c2ccc(OC)cc2)C(C#N)=C(c2ccc[nH]2)O1 (configuration not stated) is strictly below 90%.
False

For this molecule, is growth lower than 90%? NC1=NN(O)C2=CC([N+](=O)[O-])C=CC2=N1 (configuration not stated)
False

# TODO verify growth < 90% strictly for this molecule: CC1CCC(C(C)C)C(NNC(N)=O)C1 (configuration not stated)
False

Is growth of C/C(=N\Nc1ccc([N+](=O)[O-])cc1[N+](=O)[O-])c1ccc(Br)cc1 strictly below 90%?
False

Consider O=c1[nH]nc(-c2ccc(Br)cc2)cc1Cc1ccc(O)cc1 . Does its growth lie strictly below 90%?
True

# TODO verify growth < 90% strictly for this molecule: CC(=O)CC/C=C(\C)[C@H](O)[C@H](C)C(=O)O[C@H]1C[C@H](C)C=C2C=C[C@@]3(C)O[C@@H](O)CC(=O)[C@]3(C)[C@H]21
True

Threshold test, growth < 90%: COc1ccc(/C=C2\Oc3cc(OCCCN4CCCC4)ccc3C2=O)cc1
False

Decide: growth of Oc1ccccc1/C=N\NC(=S)Nc1ccc(F)cc1 strictly below 90%?
True

Hello, I'm reviewing records and need to know if growth of CCN(CC)c1ccc(/C=N/NC(=O)c2ccc(Nc3ccnc(C(F)(F)F)c3)cc2)c(O)c1 is below 90%. Could you check?
True

Bench note: check whether O=C(Nc1cccc(C(F)(F)F)c1)C(Cl)Cl shows growth below 90%
False

# check: growth < 90% for COc1ccc(/C(=C\c2cc(OC)c(OC)c(OC)c2)C(=O)N2CCCNCC2)cc1
False

These entries and their values trace back to PubChem BioAssay (NCI).
